Field: t½. Provide a value for each of the binders that follow.
Molecular target: T1, human IL-33 (R&D Systems, #3625-IL-010/CF) (human, UniProt O95760 112-270)
T1 construct: Commercial recombinant protein; also called hIL-33; interleukin-33
T1 sequence (looked up): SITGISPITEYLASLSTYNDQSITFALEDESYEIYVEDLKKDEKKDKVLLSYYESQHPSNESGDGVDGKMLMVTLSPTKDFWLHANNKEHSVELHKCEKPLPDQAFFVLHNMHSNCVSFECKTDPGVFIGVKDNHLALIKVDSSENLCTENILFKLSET
Assay: SPR 37C pH7.4, mAb captured
Please respond with the number in min and leave the unit unwritten.

Enquiry: Please give the measured t½ for this binder: H4H9640P (antibody, human IgG4, V domains shown, Human IgG4 Fc (H4H)) VH: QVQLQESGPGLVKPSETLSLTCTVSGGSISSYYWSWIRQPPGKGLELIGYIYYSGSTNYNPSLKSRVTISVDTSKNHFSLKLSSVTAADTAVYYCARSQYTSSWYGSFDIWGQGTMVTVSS VL: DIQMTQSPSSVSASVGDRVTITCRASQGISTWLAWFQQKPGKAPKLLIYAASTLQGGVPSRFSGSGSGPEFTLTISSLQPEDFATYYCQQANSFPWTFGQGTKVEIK
Return: 20

Enquiry: Please give the measured t½ for this binder: H4H9659P (antibody, human IgG4, V domains shown, Human IgG4 Fc (H4H)) VH: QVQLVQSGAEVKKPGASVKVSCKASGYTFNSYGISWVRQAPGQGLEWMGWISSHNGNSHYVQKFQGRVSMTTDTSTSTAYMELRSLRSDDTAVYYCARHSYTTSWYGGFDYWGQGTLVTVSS VL: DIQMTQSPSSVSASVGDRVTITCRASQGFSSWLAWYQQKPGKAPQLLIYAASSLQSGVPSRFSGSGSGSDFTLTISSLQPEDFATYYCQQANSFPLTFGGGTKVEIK
Return: 29

Enquiry: Please give the measured t½ for this binder: H4H9676P (antibody, human IgG4, V domains shown, Human IgG4 Fc (H4H)) VH: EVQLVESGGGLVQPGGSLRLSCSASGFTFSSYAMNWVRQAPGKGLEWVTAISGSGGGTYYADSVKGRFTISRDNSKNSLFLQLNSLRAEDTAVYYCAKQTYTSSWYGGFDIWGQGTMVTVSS VL: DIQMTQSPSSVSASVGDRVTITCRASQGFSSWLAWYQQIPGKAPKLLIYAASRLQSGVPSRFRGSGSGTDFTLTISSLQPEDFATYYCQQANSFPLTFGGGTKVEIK
Return: 9

Enquiry: Please give the measured t½ for this binder: H4H9664P (antibody, human IgG4, V domains shown, Human IgG4 Fc (H4H)) VH: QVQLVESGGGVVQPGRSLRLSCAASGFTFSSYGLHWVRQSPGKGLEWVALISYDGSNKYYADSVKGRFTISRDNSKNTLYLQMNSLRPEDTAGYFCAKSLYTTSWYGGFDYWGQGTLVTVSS VL: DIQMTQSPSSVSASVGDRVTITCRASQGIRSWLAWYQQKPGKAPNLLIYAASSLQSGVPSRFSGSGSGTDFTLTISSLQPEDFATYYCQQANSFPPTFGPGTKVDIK
Return: 16

Enquiry: Please give the measured t½ for this binder: H4H9672P (antibody, human IgG4, V domains shown, Human IgG4 Fc (H4H)) VH: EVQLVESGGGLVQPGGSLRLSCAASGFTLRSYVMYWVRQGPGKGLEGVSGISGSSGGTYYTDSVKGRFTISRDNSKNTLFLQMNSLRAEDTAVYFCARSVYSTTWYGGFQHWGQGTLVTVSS VL: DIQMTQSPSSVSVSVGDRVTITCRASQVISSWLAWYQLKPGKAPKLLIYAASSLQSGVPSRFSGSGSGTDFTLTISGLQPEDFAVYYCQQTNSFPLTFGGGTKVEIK
Return: 10
